# PROTOCOL_DETAILS: Hypothermic activity
# Type: in vivo, male mice (CD1 Charles Rivers)
# SETUP_CONDITIONS: Mus musculus; oral route (O.R.); read-out: Effective dose (-1° C.)
OUTCOME_MEASURE: ED (-1 C) (mg/kg)
Give bare numbers, in mg/kg.

Recorded results for 3 compounds are shown here.
[in] What does the data say about its ED (-1 C)? Entry: "CON=CC1=CCCN(C(=O)Oc2ccccc2)C1"
[out] 4.6

[in] What does the data say about its ED (-1 C)? Entry: "CON=CC1=CCCN(C(=O)Oc2ccc(Br)cc2)C1"
[out] 1.7

[in] What does the data say about its ED (-1 C)? Entry: "CON=CC1=CCCN(C(=O)Oc2ccc(C)cc2)C1"
[out] 1.5

Go through the list and state ED (-1 C) for each entry.
1. COC(=O)C1=CCCN(C)C1 [Arecoline, arecoline, reference compound]
2. CCOC(=O)N1CCC=C(C=NOC)C1
3. CON=CC1=CCCN(C(=O)Oc2ccc(C(C)(C)CC(C)(C)C)cc2)C1
4. CON=CC1=CCCN(C(=O)Oc2ccc(OC)c(OC)c2)C1
5. CON=CC1=CCCN(C(=O)Oc2ccc(C(C)C)cc2)C1
6. C=CCOC(=O)N1CCC=C(C=NOC)C1

[out]
1: 194; 2: 3.9; 3: 7; 4: 0.7; 5: 3.4; 6: 1.6

Go through the list and state ED (-1 C) for each entry.
1. CON=CC1=CCCN(C(=O)Oc2ccc(Cl)cc2)C1
2. CON=CC1=CCCN(C(=O)Oc2ccc(F)cc2)C1

[out]
[2.2, 3.2]
